Provenance of the data: the RNAGym collection of RNA variant scans (doi:10.1093/molbev/msab373)

reverse-splicing fitness values for the variants below.
B1: Azoarcus group I ribozyme (parent)
chain: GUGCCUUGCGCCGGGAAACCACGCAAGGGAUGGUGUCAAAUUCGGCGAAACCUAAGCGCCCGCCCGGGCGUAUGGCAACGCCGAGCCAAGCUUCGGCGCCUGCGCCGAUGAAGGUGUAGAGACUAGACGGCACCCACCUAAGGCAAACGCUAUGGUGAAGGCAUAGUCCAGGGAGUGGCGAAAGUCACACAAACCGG

Variants of: B1
ASSAY METHOD TEXT: reverse-splicing fitness (ratio to wild type); higher = more active; in vitro selection; Mg2+ level not given

- MUTANT CODE: "C82A A111G A120G A145U C150G C169U"
  reverse-splicing fitness: 0.00867
- MUTANT CODE: "C82A A111C A120U A145C C150U C169U"
  reverse-splicing fitness: 0.00379
- MUTANT CODE: "A120C A145G C150G U176G"
  reverse-splicing fitness: 0.019
- MUTANT CODE: "A111G A120C A145G C150G"
  reverse-splicing fitness: 0.0893
- MUTANT CODE: "C82G A111G A145U C150U C169A"
  reverse-splicing fitness: 0.00966
- MUTANT CODE: "C82A A111G A120G A145C C150G C169U U176G"
  reverse-splicing fitness: 0.00529
- MUTANT CODE: "C82A A111U A120C A145G C150U U176C"
  reverse-splicing fitness: 0.0246
- MUTANT CODE: "C82U A120U A145G C169G"
  reverse-splicing fitness: 0.00532
- MUTANT CODE: "C82U A120C A145C C150A C169U U176C"
  reverse-splicing fitness: 0.00799
- MUTANT CODE: "C82G A111G A145C C169A U176A"
  reverse-splicing fitness: 0.0111
- MUTANT CODE: "C82G A111G A120U A145C C150G"
  reverse-splicing fitness: 0.00878
- MUTANT CODE: "C82U A111G A120U A145G C150U C169A"
  reverse-splicing fitness: 0.0056
- MUTANT CODE: "C82A A111U A120U A145G C150G C169A U176A"
  reverse-splicing fitness: 0.0119
- MUTANT CODE: "A111G A145C C150G C169U"
  reverse-splicing fitness: 0.0255
- MUTANT CODE: "C82A A111G A120U C169A U176C"
  reverse-splicing fitness: 0.00316
- MUTANT CODE: "C82U A111C A120C A145U C150A C169U U176A"
  reverse-splicing fitness: 0.0184
- MUTANT CODE: "C82A A111G A120G A145G C150G C169A U176G"
  reverse-splicing fitness: 0.00875
- MUTANT CODE: "C82U A111U A120C C169A U176G"
  reverse-splicing fitness: 0.00513
- MUTANT CODE: "A111U A120G A145G C150U C169G U176A"
  reverse-splicing fitness: 0.0272
- MUTANT CODE: "A111C A120G A145U C150A U176A"
  reverse-splicing fitness: 0.0126
- MUTANT CODE: "C82U A111G A120U A145U C150A C169A U176C"
  reverse-splicing fitness: 0.00251
- MUTANT CODE: "A111G A145C C150G U176G"
  reverse-splicing fitness: 0.0319
- MUTANT CODE: "C82U A111U U176A"
  reverse-splicing fitness: 0.107
- MUTANT CODE: "A111U A120C A145G C150U U176A"
  reverse-splicing fitness: 0.176
- MUTANT CODE: "C82U A111G C150G C169G"
  reverse-splicing fitness: 0.00675
- MUTANT CODE: "A111G A120U A145U C150A C169G U176A"
  reverse-splicing fitness: 0.00286
- MUTANT CODE: "C82U A145G C150G"
  reverse-splicing fitness: 0.0812
- MUTANT CODE: "C82G A120G A145U U176A"
  reverse-splicing fitness: 0.0157
- MUTANT CODE: "C82G A111U A120U A145C C169U"
  reverse-splicing fitness: 0.00386
- MUTANT CODE: "C82A A120G U176G"
  reverse-splicing fitness: 0.00511
- MUTANT CODE: "A111G A120U A145G C150G C169G U176A"
  reverse-splicing fitness: 0.00719
- MUTANT CODE: "C82U A111U C150U"
  reverse-splicing fitness: 0.157
- MUTANT CODE: "C82A A111G A120G C150A U176G"
  reverse-splicing fitness: 0.00961
- MUTANT CODE: "A111U A120C A145G C150U C169A"
  reverse-splicing fitness: 0.0113
- MUTANT CODE: "C82U A111U A120C A145C C150G C169A U176G"
  reverse-splicing fitness: 0.00527
- MUTANT CODE: "C82G A120G A145G C150U U176G"
  reverse-splicing fitness: 0.0072
- MUTANT CODE: "C82G A111G A120U C150U C169A U176A"
  reverse-splicing fitness: 0.00519
- MUTANT CODE: "C82G A120C A145C C150A C169G U176C"
  reverse-splicing fitness: 0.0164
- MUTANT CODE: "C82A A120C A145C C150U C169A U176C"
  reverse-splicing fitness: 0.00786
- MUTANT CODE: "C82U A111G A120C A145C C150A C169G U176A"
  reverse-splicing fitness: 0.0198
- MUTANT CODE: "C82U A111G A145G C150A C169U"
  reverse-splicing fitness: 0.01
- MUTANT CODE: "C82A A111G A120C C169U"
  reverse-splicing fitness: 0.0139
- MUTANT CODE: "A120C A145U C150U C169A U176A"
  reverse-splicing fitness: 0.0137
- MUTANT CODE: "A111U A145C C150G U176A"
  reverse-splicing fitness: 0.153
- MUTANT CODE: "C82A A120U A145U C150G U176G"
  reverse-splicing fitness: 0.00318
- MUTANT CODE: "A111G A120G A145G C150G C169A"
  reverse-splicing fitness: 0.0213
- MUTANT CODE: "C82G A111C A120U A145U U176G"
  reverse-splicing fitness: 0.00533
- MUTANT CODE: "A111C A120C C150U C169G"
  reverse-splicing fitness: 0.00843
- MUTANT CODE: "C82U A111U A145G C150U U176C"
  reverse-splicing fitness: 0.12
- MUTANT CODE: "C82U A111U A120G C150G U176C"
  reverse-splicing fitness: 0.00776
- MUTANT CODE: "C82A A145G C150U U176A"
  reverse-splicing fitness: 0.287
- MUTANT CODE: "C82U A111C A145U C150U C169A U176C"
  reverse-splicing fitness: 0.011
- MUTANT CODE: "A120U C150A C169U U176G"
  reverse-splicing fitness: 0.00432
- MUTANT CODE: "C82U A111G A120G A145U C150G C169U U176A"
  reverse-splicing fitness: 0.0129
- MUTANT CODE: "C82G A120U A145U C150U C169G U176A"
  reverse-splicing fitness: 0.00248
- MUTANT CODE: "C82G A111U A120G C150G"
  reverse-splicing fitness: 0.00634
- MUTANT CODE: "C82U A111C A120U A145C U176A"
  reverse-splicing fitness: 0.00655
- MUTANT CODE: "C82G A111G A120C A145C C150G U176G"
  reverse-splicing fitness: 0.0035
- MUTANT CODE: "C82A A111G A120G A145C C150U C169G U176C"
  reverse-splicing fitness: 0.0123
- MUTANT CODE: "C82A A111C A120G A145U C150U C169A U176A"
  reverse-splicing fitness: 0.0123
- MUTANT CODE: "C82G A145U C169A U176C"
  reverse-splicing fitness: 0.00844
- MUTANT CODE: "C82A A111C A120U A145C U176A"
  reverse-splicing fitness: 0.00599
- MUTANT CODE: "A120U A145C C150G"
  reverse-splicing fitness: 0.293
- MUTANT CODE: "C82U A111U A120C A145C U176A"
  reverse-splicing fitness: 0.0125
- MUTANT CODE: "C82G A111U A120C A145U"
  reverse-splicing fitness: 0.0517
- MUTANT CODE: "C82A A111C A120U A145G C150A C169G"
  reverse-splicing fitness: 0.00577
- MUTANT CODE: "C82A A111G A120U A145U C169G"
  reverse-splicing fitness: 0.00329
- MUTANT CODE: "A111G A145U C169G U176A"
  reverse-splicing fitness: 0.0268
- MUTANT CODE: "C82U A111U A120G C150U C169G"
  reverse-splicing fitness: 0.00909
- MUTANT CODE: "C82A A111G A120U A145C C150U C169G"
  reverse-splicing fitness: 0.00298
- MUTANT CODE: "A145C C169G U176A"
  reverse-splicing fitness: 0.0744
- MUTANT CODE: "C82U A111G A120G A145G C169A"
  reverse-splicing fitness: 0.0117
- MUTANT CODE: "C82U A111C A145C C169U"
  reverse-splicing fitness: 0.0113
- MUTANT CODE: "C82A A111U A145G C150U C169G U176A"
  reverse-splicing fitness: 0.0134
- MUTANT CODE: "A111C A120U C150G C169G U176A"
  reverse-splicing fitness: 0.00481
- MUTANT CODE: "C82U A120U A145U C169U U176C"
  reverse-splicing fitness: 0.00358
- MUTANT CODE: "C82G A111G A120C C150U"
  reverse-splicing fitness: 0.0417
- MUTANT CODE: "C82G A120G A145C C150U C169G"
  reverse-splicing fitness: 0.0163
- MUTANT CODE: "C82G A111U A120U A145U C150U U176C"
  reverse-splicing fitness: 0.0131
- MUTANT CODE: "C82G A111U A145G C150U C169A U176G"
  reverse-splicing fitness: 0.00701
- MUTANT CODE: "A145U C169A"
  reverse-splicing fitness: 0.173
- MUTANT CODE: "A111U A120G A145C C150A"
  reverse-splicing fitness: 0.0115
- MUTANT CODE: "C82A A111U C150U C169U U176G"
  reverse-splicing fitness: 0.00671
- MUTANT CODE: "C82U A111G A120C A145C C169G U176G"
  reverse-splicing fitness: 0.00381
- MUTANT CODE: "A111G A120G A145C C150G C169G"
  reverse-splicing fitness: 0.0368
- MUTANT CODE: "C82G A111C A120G C150G U176C"
  reverse-splicing fitness: 0.0153
- MUTANT CODE: "C82A A111U A120G A145C C150A C169A U176C"
  reverse-splicing fitness: 0.00664
- MUTANT CODE: "A111C U176G"
  reverse-splicing fitness: 0.202
- MUTANT CODE: "C82G A111U A120U A145U C150A C169A U176A"
  reverse-splicing fitness: 0.00349
- MUTANT CODE: "C82U A111C A120G A145U C150G C169U"
  reverse-splicing fitness: 0.00734
- MUTANT CODE: "A120U A145U C150A C169A U176C"
  reverse-splicing fitness: 0.00256
